These entries and their values trace back to patent US20120010075A1.

Tested on: Phytophthora capsici
Assay: In vitro fungitoxicity of hydrazones with and without copper towards Phytophthora capsici (Example 28, Table 3)
Type: cell-based
Conditions: Phytophthora capsici; 0.039 μg/mL; copper-minus AS medium; 48 h; read-out: % Inhn Minus copper Observed
experimentalEndpoint: inhibition of growth at 0.039 µg/mL (%)
Give the value, in units of %, as a plain number.

O=C(N/N=C/c1cc(Cl)cc(Cl)c1O)c1ccc2c(c1)OCO2    28.8
C/C(=N\NC(=O)CCc1ccccc1)c1ccccc1O    5.6

Request body: readout inhibition of growth at 0.039 µg/mL, system Phytophthora capsici, query Nc1ccccc1C(=O)N/N=C/c1cc(Cl)cc(Cl)c1O . Return the value.
52.1

Request body: readout inhibition of growth at 0.039 µg/mL, system Phytophthora capsici, query Oc1c(Cl)cc(Cl)cc1/C=N/NC(=S)c1ccccc1 . Return the value.
40.6

Request body: readout inhibition of growth at 0.039 µg/mL, system Phytophthora capsici, query Cc1ccc(C(=O)N/N=C/c2cc(Br)cc(Br)c2O)c(C)c1 . Return the value.
11.4
